tested on: SNB-19 CNS; experiment: NCI tumour cell line growth inhibition, 48 h; in the data active = GI50 below about 0.43 µM; inactive = the rest
Mark one answer only. Choices: yes (1) (active), no (0) (inactive)

N#CS.N=C=S.N=C=S.[Cu+2].[NH2-].[NH2-].[NH2-].[NH2-].c1ccc2ncccc2c1
no (0)
O=C(NN=C1CCCCC1)c1[nH]c2ccc(F)cc2c1-c1ccccc1
no (0)
COc1cc(/C=C/C(=O)c2ccc(NC(=O)CSc3nnc(-c4cc(OC)c(OC)c(OC)c4)n3-c3ccccc3)cc2)cc(OC)c1OC
no (0)
Nc1c(C(=O)c2ccc(CCCN3CCOCC3)cc2)cnn1-c1ccc(F)cc1
no (0)

Query: Which outcome did this test record for the compound COc1cccc2c1c(C1=C(c3cn(C)c4ccccc34)C(=O)NC1=O)cn2C ?
Result: no (0)
